Target: T1, recombinant hPDGFRB ectodomain (human, UniProt P09619 33-532)
T1 construct: extracellular domain; also called hPDGFRB-ECD; human PDGFRB ECD
T1 sequence (P09619 33-532): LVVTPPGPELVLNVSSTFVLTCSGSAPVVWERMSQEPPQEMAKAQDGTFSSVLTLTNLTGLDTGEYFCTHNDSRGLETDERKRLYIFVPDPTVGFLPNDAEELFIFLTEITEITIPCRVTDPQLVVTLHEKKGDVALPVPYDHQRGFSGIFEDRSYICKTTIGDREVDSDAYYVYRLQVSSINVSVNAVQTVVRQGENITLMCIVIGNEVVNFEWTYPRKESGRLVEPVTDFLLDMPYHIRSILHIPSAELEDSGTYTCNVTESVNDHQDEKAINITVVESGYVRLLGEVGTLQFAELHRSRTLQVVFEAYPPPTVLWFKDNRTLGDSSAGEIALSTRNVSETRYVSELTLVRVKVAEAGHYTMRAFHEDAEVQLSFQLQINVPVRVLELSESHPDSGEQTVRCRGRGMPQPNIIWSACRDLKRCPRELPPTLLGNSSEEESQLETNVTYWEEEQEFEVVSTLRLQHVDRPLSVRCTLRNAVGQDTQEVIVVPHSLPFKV
Assay: phage ELISA and binding assay on hPDGFRB-ECD; values only in FIG. 5

binder: SP14P (VHH, From libraries 1 and 2 (raised against hPDGFRB)) VHH: EVQLVESGGGLVQAGDSLRLSCVVSGLTFSRYGMGWFRQATGKEREFVGGISVGSSGTMYPNSVKGRFTISRDNAKSTVYLQMNSLKPEDTAVYFCAAIDQGSFVQQRDYRYWGQGTQVTVSS
binding result: binds
--
binder: SP01P (VHH, From libraries 1 and 2 (raised against hPDGFRB)) VHH: EVQLVESGGGLAQAGGSLRLSCVASGNIDSANGMAWYRQAPGKQRELVAHITSGTSYYVASVEGRFTISRANAKDTWYLQMNSLKPEDTGVYYCFPIGLSAHWSQGTQVTVSS
binding result: binds
--
binder: SP08P (VHH, From libraries 1 and 2 (raised against hPDGFRB)) VHH: EVQLVESGGGLVQAGGSLRLSCAASGRTFNGYAMAWFRQAPGKERDFVASITWSYGYTYYADSAQGRFTISRDSAKNTVYLEMNSLKPEDTAVYYCAADPKASRFRILRQYAHWGQGTQVTVSS
binding result: binds
--
binder: SP05P (VHH, From libraries 1 and 2 (raised against hPDGFRB)) VHH: EVQLVESGGGLVQAGGSLRLSCAASGRTSFSGYAMAWFRQAPGKERDFVASITWSYGYTYYTDSAQGRFTISRDSAKNTVYLEMNSLKPEDTAVYYCAADPKASRFRILREYAYWGQGTQVTVSS
binding result: binds

The measurements presented in this section are drawn from patent US20240325562A1.
